- Test system: Escherichia coli
- Protocol Details: minimum inhibitory concentration (MIC)
- Study Conditions: isolate (source animal id): 139
Property Measured: minimum inhibitory concentration (µg/mL)
Supply the numeric figure in µg/mL, leaving out any unit text.

API: value(readout= minimum inhibitory concentration, system= Escherichia coli, query= CC1(C)S[C@@H]2[C@H](NC(=O)[C@H](N)c3ccccc3)C(=O)N2[C@H]1C(=O)O [Ampicillin] ) 1

Lookup CN1C[C@@H]2C[C@H]1CN2c1cc2c(cc1F)c(=O)c(C(=O)O)cn2C1CC1 [Danofloxacin] 0.25

###

- Test system: Escherichia coli
- Protocol Details: minimum inhibitory concentration (MIC)
- Study Conditions: isolate (source animal id): 124
Property Measured: minimum inhibitory concentration

Data request, read-out minimum inhibitory concentration, for "CC[C@H]1OC(=O)C[C@@H](O)[C@H](C)[C@@H](O[C@@H]2O[C@H](C)[C@@H](O)[C@H](N(C)C)[C@H]2O)[C@@H](CCN2CCCCC2)C[C@@H](C)C(=O)/C=C/C(C)=C/[C@@H]1CN1CCCCC1" 2 µg/mL

Lookup "CCN1CCN(c2cc3c(cc2F)c(=O)c(C(=O)O)cn3C2CC2)CC1" > 2 µg/mL

Lookup "CN[C@@H]1[C@H](O)[C@H](NC)[C@H]2O[C@@]3(O)C(=O)C[C@@H](C)O[C@H]3O[C@@H]2[C@H]1O" > 64 µg/mL

Lookup "CCCN1C[C@H](C)[C@@H](O)[C@](C)(O)[C@@H](CC)OC(=O)[C@H](C)[C@@H](O[C@H]2C[C@@](C)(OC)[C@@H](O)[C@H](C)O2)[C@H](C)[C@@H](O[C@@H]2O[C@H](C)C[C@H](N(C)C)[C@H]2O)[C@](C)(O)C[C@H]1C" > 8 µg/mL

Lookup "CC1(C)S[C@@H]2[C@H](NC(=O)Cc3ccccc3)C(=O)N2[C@H]1C(=O)O" > 8 µg/mL
